# System Under Test: UniProtKB P00915
# Sequence (P00915 whole entry): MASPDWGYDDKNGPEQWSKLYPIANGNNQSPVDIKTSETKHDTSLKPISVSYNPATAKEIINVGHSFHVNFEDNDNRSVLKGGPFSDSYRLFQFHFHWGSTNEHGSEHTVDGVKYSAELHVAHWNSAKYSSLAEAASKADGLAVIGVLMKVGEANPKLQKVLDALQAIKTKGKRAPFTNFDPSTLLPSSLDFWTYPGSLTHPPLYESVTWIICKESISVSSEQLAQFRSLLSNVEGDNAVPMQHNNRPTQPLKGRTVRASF
# Protocol Description: Hydratase Activity Assay
# Settings: pH 10
Measured Quantity: IC50 (µM)

A. Cc1ccc(-c2cc3cc(O)c(O)cc3oc2=O)cc1 [PPC]
B. O=c1oc2cc(O)c(O)cc2cc1-c1ccccc1 [DCP]
### Prompt Endpoint returns whichever of A and B has the numerically higher IC50. Choose, then provide that item's label.
### Response A

a. Cc1ccccc1-c1cc2cc(O)c(O)cc2oc1=O [OPC]
b. Cc1cccc(-c2cc3cc(O)c(O)cc3oc2=O)c1 [MPC]
### Prompt Endpoint returns whichever of a and b has the numerically higher IC50. Choose, then provide that item's label.
### Response b
(b: 320 µM, a: 206 µM)

---

# System Under Test: Carbonic anhydrase 2 (Homo sapiens, UniProt P00918)
# Protocol Description: Hydratase Activity Assay
# Settings: pH 10
Measured Quantity: IC50 (µM)

# count of solved cases: 2
{"columns": ["Sample Smiles", "IC50 / µM"],
 "data": [
  ["Cc1ccc(-c2cc3cc(O)c(O)cc3oc2=O)cc1", 561],
  ["Cc1ccccc1-c1cc2cc(O)c(O)cc2oc1=O", 363]
]}

1. Cc1cccc(-c2cc3cc(O)c(O)cc3oc2=O)c1
2. O=c1oc2cc(O)c(O)cc2cc1-c1ccccc1
### Prompt Endpoint returns whichever of 1 and 2 has the numerically higher IC50. Choose, then provide that item's label.
### Response 1
(1: 504 µM, 2: 61.7 µM)

---

# System Under Test: Carbonic anhydrase 2 (Homo sapiens, UniProt P00918)
# Protocol Description: Esterase Activity Assay
# Settings: pH 10
# Method: Carbonic anhydrase enzyme activity was assayed both with respect to its hydratase activity (i.e. hydration of CO2) and to its esterase activity (i.e. hydrolysis of an ester of p-nitrophenylacetate)
Measured Quantity: IC50 (µM)

# count of solved cases: 2
{"columns": ["Sample Smiles", "Uom", "IC50"],
 "data": [
  ["Cc1ccccc1-c1cc2cc(O)c(O)cc2oc1=O", "µM", 163],
  ["O=c1oc2cc(O)c(O)cc2cc1-c1ccccc1", "µM", 246]
]}

1. Cc1cccc(-c2cc3cc(O)c(O)cc3oc2=O)c1
2. Cc1ccc(-c2cc3cc(O)c(O)cc3oc2=O)cc1
### Prompt Hello, I am sorting some records. Could you say if 1 or 2 has the smaller IC50 value? Choose, then provide that item's label.
### Response 2
